Consider the following compounds and their measured inhibition readings.
# TEST_SYSTEM: Dual specificity protein phosphatase 3 (Homo sapiens) (UniProt P51452)
# Sequence (P51452 whole entry, looked up): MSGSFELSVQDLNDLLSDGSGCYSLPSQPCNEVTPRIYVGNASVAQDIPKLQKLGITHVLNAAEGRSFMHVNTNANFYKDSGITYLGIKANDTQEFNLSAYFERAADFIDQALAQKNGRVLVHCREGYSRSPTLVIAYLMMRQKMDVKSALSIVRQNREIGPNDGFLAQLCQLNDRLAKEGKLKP
# PROCEDURE_DETAILS: VHR1 phosphatase inhibitors, biochemical (AID 1878)
# CONDITIONS_USED: recombinant VHR phosphatase, fluorogenic substrate; at 13.3 µM; active compounds read high
Screen size: about 1,000 compounds; about 200 (20%) were called active. Only a sample is shown. Measured potencies and affinities stand elsewhere.

These solved cases illustrate the format of a correct answer.
Cc1ccc(NC(=O)CN2C(=O)S/C(=C/c3ccc(-c4cccc(C(=O)O)c4)o3)C2=O)cc1 ... 93.9% (active)
Oc1cc(Br)ccc1C=Nc1ccc(N2CCCCC2)cc1 ... -10% (inactive)
Cc1cc(OCc2cc(C(=O)N(C)CCCN3CCOCC3)no2)cc(C)c1Cl ... -10.5% (inactive)

Check Dual specificity protein phosphatase 3 (Homo sapiens) (UniProt P51452) data and give inhibition for CCOc1ccccc1NC(=O)c1cc(-c2ccncc2)nc2c(Cl)cccc12 .
34.3% (inactive)

Check Dual specificity protein phosphatase 3 (Homo sapiens) (UniProt P51452) data and give inhibition for COc1cc(CN2CCN(CC3CC3)CC2CCO)cc(OC)c1 (stereo not given) .
-3.6% (inactive)

Check Dual specificity protein phosphatase 3 (Homo sapiens) (UniProt P51452) data and give inhibition for CC(=O)N/C(=N\c1nc(C)cc(C)n1)Nc1ccc(Cl)cc1Cl .
-6.7% (inactive)

Check Dual specificity protein phosphatase 3 (Homo sapiens) (UniProt P51452) data and give inhibition for Cc1c(Cl)cccc1NC(=O)c1cccc(OC(F)F)c1 .
29.2% (inactive)

Check Dual specificity protein phosphatase 3 (Homo sapiens) (UniProt P51452) data and give inhibition for O=S(=O)(Nc1ccc2ccccc2n1)c1ccccc1Cl .
3.5% (inactive)
